Test: protein stability index of a GFP-peptide fusion (yeast GPS) (PSI 1-4); higher = more stable; sorted into four equal gates, so the index is relative within each strain
Conditions: ubr1∆
Quick rule: protein stability index of at least 3 means label 1, below that means label 0.

primarySequence	class
HMISQEGIKETQAKRIF [SWI1]	label 1
QKKATMSAEEALVYSYI [RPC34]	label 0
IAEVGNKRWKVDIGGKQ [RRP4]	label 1

Exercise: Exam item: decide whether the reported protein stability index for AAGVERLIFYPDEYEQL [PRE3] is at least 3.
Key: label 0

Exercise: Is reported protein stability index greater than or equal to 3 here: SVDKKVDSGEERNEQER [SWI3]
Key: label 1

Exercise: Identify whether the reported protein stability index of the following sequence is 3 or greater: EIARQMRDKSFGRTLAS [RPL12A]
Key: label 0

Exercise: Check the entry MIELICSSATVPKHMLD [AAR2] : does protein stability index equal or exceed 3?
Key: label 0

###

Assay: protein stability index of a GFP-peptide fusion (yeast GPS) (PSI 1-4); higher = more stable; sorted into four equal gates, so the index is relative within each strain
Conditions: doa10∆
Classify as follows. Reported protein stability index greater than or equal to 3: y. Reported protein stability index below: n.

primarySequence	class
LCAGANNPKIQTKDSVK [IRR1]	y

Exercise: Say whether TVPELEIPTQIYRTTRQ [ARP9] shows protein stability index of 3 or more.
Key: n

Exercise: In plain terms: is recorded protein stability index at least 3 for LLVQSLNDMVLELKENY [NNF1] ?
Key: n

Exercise: Evaluate FEFNIRHSGKVYPITLS [UBP6] : protein stability index at minimum 3?
Key: n

Exercise: Form field: protein stability index at least 3? Entry: TSAVELGAIEQILIFAA [YJL039C/NUP192]
Key: n

Exercise: Does TTYSVDDYYKEIIGGGS [ISW2] have a reported protein stability index of at least 3?
Key: y

Exercise: Determine whether this sequence has protein stability index no lower than 3: FVRGDSKIFRFQNSKSA [RPL24A]
Key: n

###

Assay: protein stability index of a GFP-peptide fusion (yeast GPS) (PSI 1-4); higher = more stable; sorted into four equal gates, so the index is relative within each strain
Details: pdr5∆
Consider the following sequences and their measured protein stability index readings.
# output: bare number, no unit

These solved cases illustrate the format of a correct answer.
primarySequence	recordedMeasurement
SLAILGMNLLSNLSQNV [SWI1]	2.94
LKTADNRDRSFQLLEPL [PGD1]	3.38
TTPEINNFIVERVQSDE [SRP68]	3.38
IEFEYDPWNKLKHTDYW [RPB3]	2.69

Exercise: Provide only the value of recorded protein stability index for DEGLLNMVSLRGRNDTL [GRR1]
Key: 2.49

Exercise: For the sequence GKKKSATAVAHVKAGKG [RPS16A] , give its measured protein stability index value.
Key: 2.69

Exercise: Look up protein stability index of QQPTASDNIASLQYINI [SMD1] and report it.
Key: 3.27

Exercise: Hello, please tell me recorded protein stability index for this one: PVNTGVLHVSAKGKSGV [RRP40]
Key: 2.1

Exercise: Tell me its protein stability index given NYYSNKSNSTGNISSST [REC8] as the entry.
Key: 3.02

Exercise: Tell me protein stability index reported for QNISPVYSVDPLEKITD [PRP8]
Key: 2.9

Exercise: Specify measured protein stability index for DVNLDVRIHSIQVLTEA [IRR1] .
Key: 2.84

Exercise: Annotate the sequence TTTVLKRYANHTQDIIG [RET1] with its measured protein stability index.
Key: 2.75

Exercise: In one line, give reported protein stability index of the entry FPTTSHESLVTTLLRKK [MED8] .
Key: 1.82

Exercise: Answer with the recorded protein stability index for the sequence listed here: HYVVLDTNVVLQAIDLL [DIS3]
Key: 2.49

Exercise: Give reported protein stability index value for HIQGFPTLGERLDNLQD [DSN1]
Key: 3.39
